Target: T1, Human GPR7 (human, UniProt P48145 1-328)
T1 construct: Full-length receptor expressed in CHO dhfr- cells; also called Human GPR7 receptor; GPR7 receptor
T1 sequence: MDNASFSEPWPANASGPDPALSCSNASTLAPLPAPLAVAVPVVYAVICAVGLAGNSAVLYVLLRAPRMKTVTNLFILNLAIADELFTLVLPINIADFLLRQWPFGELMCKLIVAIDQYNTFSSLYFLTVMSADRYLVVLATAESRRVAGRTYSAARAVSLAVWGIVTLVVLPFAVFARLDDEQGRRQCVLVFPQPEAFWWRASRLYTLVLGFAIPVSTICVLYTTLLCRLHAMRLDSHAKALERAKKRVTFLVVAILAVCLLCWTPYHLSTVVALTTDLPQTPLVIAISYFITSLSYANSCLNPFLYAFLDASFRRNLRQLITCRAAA
Test: competition with [125I-Tyr10]-hGPR8L(1-23), membrane fraction of GPR7 expressing CHO cells
pIC50: −log10 of the molar value.
readout: pIC50

binder: WYKHVASPRYHTVGRAAGL (also called hGPR8L(1-19)) [Human GPR8 ligand (1-19)]
measured_value: 8.77
//
binder: WYKHVASPRYHTVGRAAGLLXGL (methionine sulfoxide, Met(O), at position 21, also called [MET(O)]-hGPR8L(1-23)) [Human GPR8 ligand (1-23) oxidant]
measured_value: 9.77
//
binder: XYKHVASPRYHTVGRAAGLLMGL (N-terminal Fmoc (N-9-fluorenylmethoxycarbonyl) on Trp 1, also called Fmoc-hGPR8L(1-23); Human GPR8 ligand (1-23) modified by Fmoc) [Fmoc-added Human GPR8L (1-23)]
measured_value: 9.85
